The reported measurements were obtained from patent US9650395B2.

System: quinolone resistant E. coli LZ3111
Assay comment: Antibacterial activity, MIC, quinolone resistant E. coli LZ3111
Type: cell-based, Escherichia coli
Cond: Escherichia coli, read-out: MIC, LZ3111
Counter-ions that a name gives are not always drawn.
Readout type: MIC

Could you share which MIC value was measured for CCc1cc(C(=O)O)c(=O)[nH]c1-c1ccc(N2C[C@H]3CC[C@@H](N(C)Cc4ccccc4)[C@H]3C2)cc1.Cl ?
12.5 to 150 µg/mL

Same again, this time with CCc1cc(C(=O)O)c(=O)[nH]c1-c1ccc(N2CC(NC(=O)N(C)CC(=O)O)C2)cc1
12.5 to 150 µg/mL

Same again, this time with CCc1cc(C(=O)O)c(=O)[nH]c1-c1ccc(N2C[C@H]3C[C@@H](N)[C@H]3C2)cc1
12.5 to 150 µg/mL

Same again, this time with CCc1cc(C(=O)O)c(=O)[nH]c1-c1ccc(N2CCC(C)(CN)C2)cc1 (centres unmarked)
12.5 to 150 µg/mL

Same again, this time with CC(C)c1cc(C(=O)O)c(=O)[nH]c1-c1ccc(N(C)C)cc1
12.5 to 150 µg/mL

Same again, this time with CCc1c(-c2ccc(N3C[C@@H]4[C@H](C3)[C@H]4N(C)C)cc2)[nH]c(=O)c(C(=O)O)c1O [Cpd 271, hydrochloride]
3.5 to 12.5 µg/mL

Same again, this time with CCc1c(-c2ccc(N3CC[C@@H](F)C3)cc2F)[nH]c(=O)c(C(=O)O)c1O
12.5 to 150 µg/mL

Same again, this time with CCc1c(-c2ccc(N3C[C@H]4CNC[C@H]4C3)cc2)[nH]c(=O)c(C(=O)O)c1O.Cl
12.5 to 150 µg/mL

Same again, this time with CCc1cc(C(=O)O)c(=O)[nH]c1-c1cc(CN2CCCCC2)n(C)c1
12.5 to 150 µg/mL

Same again, this time with CCc1cc(C(=O)O)c(=O)[nH]c1-c1cc(CN2CCCC2)n(C)c1
12.5 to 150 µg/mL

Same again, this time with CCc1c(-c2ccc(C3CCN(CC)CC3)cc2)[nH]c(=O)c(C(=O)O)c1O
12.5 to 150 µg/mL

Same again, this time with CCc1c(-c2ccc(N3CC=CC3)cc2)[nH]c(=O)c(C(=O)O)c1O
12.5 to 150 µg/mL

Same again, this time with CN(C)c1ccc(-c2[nH]c(=O)c(C(=O)O)c(O)c2CO)cc1
3.5 to 12.5 µg/mL

Same again, this time with CCc1c(-c2ccc(C3=CCN(C)CC3)cc2)[nH]c(=O)c(C(=O)O)c1O
3.5 to 12.5 µg/mL

Same again, this time with CCc1c(-c2ccc(N3CCC(N)CC3)cc2)[nH]c(=O)c(C(=O)O)c1O
12.5 to 150 µg/mL

Same again, this time with CCc1c(-c2ccc(N3C[C@H]4C[C@@H](N(Cc5ccccc5)Cc5ccccc5)C[C@H]4C3)cc2)[nH]c(=O)c(C(=O)O)c1O
12.5 to 150 µg/mL

Same again, this time with CCc1cc(C(=O)O)c(=O)[nH]c1-c1ccc(N(C)c2ccccc2)cc1
12.5 to 150 µg/mL

====

Record form. Attribute: MIC. Fill in for each entry.
System: quinolone resistant E. coli LZ3111
Assay comment: Antibacterial activity, MIC, quinolone resistant E. coli LZ3111
Type: cell-based, Escherichia coli
Cond: Escherichia coli, read-out: MIC, LZ3111

Could you share which MIC value was measured for CCc1c(-c2cnc(N3CCC(N(C)C)C3)cn2)[nH]c(=O)c(C(=O)O)c1O (centres unmarked) [Cpd 314] ?
3.5 to 12.5 µg/mL

Same again, this time with CCc1c(-c2ccc(N3CC4CCCNC4C3)cc2)[nH]c(=O)c(C(=O)O)c1O.Cl (centres unmarked) [Cpd 272]
< 1 µg/mL

Same again, this time with CCc1cc(C(=O)O)c(=O)[nH]c1-c1ccc(CN2CCC(N(C)C)C2)n1C (centres unmarked) [Cpd 353]
12.5 to 150 µg/mL

Same again, this time with CN(C)c1ccc(-c2ccc(C(=O)O)c(=O)[nH]2)cc1 [Cpd 310]
12.5 to 150 µg/mL

Same again, this time with CCc1cc(C(=O)O)c(=O)[nH]c1-c1ccc(N2CC[C@H](F)C2)cc1 [Cpd 153]
12.5 to 150 µg/mL

Same again, this time with CCc1cc(C(=O)O)c(=O)[nH]c1-c1ccc(N2CCC(CNCc3cccc(F)c3)C2)cc1 (centres unmarked) [Cpd 238]
12.5 to 150 µg/mL

Same again, this time with CCc1cc(C(=O)O)c(=O)[nH]c1-c1ccc(N2C[C@H]3CCC[C@@H](NC)[C@H]3C2)cc1 [Cpd 195]
12.5 to 150 µg/mL

Same again, this time with CCc1cc(C(=O)O)c(=O)[nH]c1-c1ccc(N2CC[C@@H](N(C)C)C2)cc1.O=C(O)C(F)(F)F [Cpd 150]
12.5 to 150 µg/mL

====

Test system: control Gram-negative E. coli 25922 strain
Assay comment: Antibacterial activity, microbroth dilution MIC, E. coli 25922
Assay type: cell-based, Escherichia coli
Cond: Escherichia coli; E. coli 25922, microbroth dilution; read-out: MIC, 25922
Record form. Attribute: MIC. Fill in for each entry.

Could you share which MIC value was measured for CCc1cc(C(=O)O)c(=O)[nH]c1-c1ccc(N2CCC(CNCc3cccc(F)c3)C2)cc1 (centres unmarked) ?
1 to 3.5 µg/mL

Same again, this time with CCc1cc(C(=O)O)c(=O)[nH]c1-c1ccc(N2CCC(CN(C)Cc3ccccc3)C2)cc1.O=C(O)C(F)(F)F (centres unmarked)
3.5 to 12.5 µg/mL

Same again, this time with CCc1cc(C(=O)O)c(=O)[nH]c1-c1ccc(N2CCCC2c2ccccc2)cc1 (centres unmarked)
12.5 to 150 µg/mL

Same again, this time with CCc1c(-c2ccc(N3CCC3)cc2)[nH]c(=O)c(C(=O)O)c1O
3.5 to 12.5 µg/mL

Same again, this time with CCc1c(-c2ccc(OC)c(OC)c2OC)[nH]c(=O)c(C(=O)O)c1O
12.5 to 150 µg/mL

Same again, this time with CCc1c(-c2ccc(Cl)cc2)[nH]c(=O)c(C(=O)O)c1O
12.5 to 150 µg/mL

Same again, this time with CCc1cc(C(=O)O)c(=O)[nH]c1-c1ccc(N2C[C@H]3CCC[C@H](N=[N+]=[N-])[C@H]3C2)cc1.O=C(O)C(F)(F)F
12.5 to 150 µg/mL

Same again, this time with CCc1cc(C(=O)O)c(=O)[nH]c1-c1ccc(N2CCC[C@@H](O)C2)cc1
3.5 to 12.5 µg/mL

Same again, this time with CCc1cc(C(=O)O)c(=O)[nH]c1-c1ccc(N2C[C@H]3CCC[C@@H](N(C)Cc4ccccc4)[C@H]3C2)cc1.O=C(O)C(F)(F)F
12.5 to 150 µg/mL

Same again, this time with CCc1cc(C(=O)O)c(=O)[nH]c1-c1ccc(N2CC(O)C2)cc1
3.5 to 12.5 µg/mL

Same again, this time with CCc1cc(C(=O)O)c(=O)[nH]c1-c1ccc(N2CCCCC2)c(C)c1
12.5 to 150 µg/mL

Same again, this time with CCc1c(-c2ccc(N(C)C)c(F)c2)[nH]c(=O)c(C(=O)O)c1O
12.5 to 150 µg/mL

Same again, this time with CCc1cc(C(=O)O)c(=O)[nH]c1-c1ccc(N2CCCC2C)cc1 (centres unmarked)
3.5 to 12.5 µg/mL

Same again, this time with Cc1c(-c2ccc(N3CCC(N(C)C)C3)nc2)[nH]c(=O)c(C(=O)O)c1O (centres unmarked)
12.5 to 150 µg/mL

Same again, this time with CCc1cc(C(=O)O)c(=O)[nH]c1-c1ccc(N2CC3CC2CN3)cc1.O=C(O)C(F)(F)F (centres unmarked)
12.5 to 150 µg/mL

Same again, this time with CCc1c(-c2ccc(N3C[C@H]4CC[C@@H](N(C)C)[C@H]4C3)cc2)[nH]c(=O)c(C(=O)O)c1O.Cl
1 to 3.5 µg/mL

Same again, this time with CCc1cc(C(=O)O)c(=O)[nH]c1-c1ccc(N2CCC(F)C2)cc1 (centres unmarked)
1 to 3.5 µg/mL
